Data provenance: ChEMBL document CHEMBL3600351

- Tested on: Escherichia coli
- Assay Remarks: Antibacterial activity against Escherichia coli ATCC 27856 assessed as inhibition of bacterial growth after 18 hrs by liquid microdilution method
- Format: functional
- Experimental Parameters: ATCC 27856, 18 h
Quantity Name: MIC50 (µg/mL)
Report as a plain number; the unit µg/mL is understood.

Report MIC50 for CC[C@H]1OC(=O)[C@H](C)[C@@H](O[C@H]2C[C@@](C)(OC)[C@@H](O)[C@H](C)O2)[C@H](C)[C@@H](O[C@@H]2O[C@H](C)C[C@H](N(C)C)[C@H]2O)[C@](C)(O)C[C@@H](C)CN(Cc2ccc(-c3cn(CCn4ccc5cc([N+](=O)[O-])ccc54)nn3)cc2)[C@H](C)[C@@H](O)[C@]1(C)O please.
128

Try this molecule too: CC[C@H]1OC(=O)[C@H](C)[C@@H](O[C@H]2C[C@@](C)(OC)[C@@H](O)[C@H](C)O2)[C@H](C)[C@@H](O[C@@H]2O[C@H](C)C[C@H](N(C)C)[C@H]2O)[C@](C)(O)C[C@@H](C)CN(Cc2ccc(-c3cn(CCN4CCc5ccccc54)nn3)cc2)[C@H](C)[C@@H](O)[C@]1(C)O
64

Another: CC[C@H]1OC(=O)[C@H](C)[C@@H](O[C@H]2C[C@@](C)(OC)[C@@H](O)[C@H](C)O2)[C@H](C)[C@@H](O[C@@H]2O[C@H](C)C[C@H](N(C)C)[C@H]2O)[C@](C)(O)C[C@@H](C)CN(CCCCc2cn(CCc3c[nH]c4ccc(F)cc34)nn2)[C@H](C)[C@@H](O)[C@]1(C)O
32

Another molecule to check: CC[C@H]1OC(=O)[C@H](C)[C@@H](O[C@H]2C[C@@](C)(OC)[C@@H](O)[C@H](C)O2)[C@H](C)[C@@H](O[C@@H]2O[C@H](C)C[C@H](N(C)C)[C@H]2O)[C@](C)(O)C[C@@H](C)CN(CCCCc2cn(CCn3ccc4cc(F)ccc43)nn2)[C@H](C)[C@@H](O)[C@]1(C)O
16

Param item: CC[C@H]1OC(=O)[C@H](C)[C@@H](O[C@H]2C[C@@](C)(OC)[C@@H](O)[C@H](C)O2)[C@H](C)[C@@H](O[C@@H]2O[C@H](C)C[C@H](N(C)C)[C@H]2O)[C@](C)(O)C[C@@H](C)CN(Cc2ccc(-c3cn(CCc4cn(C)c5ccccc45)nn3)cc2)[C@H](C)[C@@H](O)[C@]1(C)O
128

Also CC[C@H]1OC(=O)[C@H](C)[C@@H](O[C@H]2C[C@@](C)(OC)[C@@H](O)[C@H](C)O2)[C@H](C)[C@@H](O[C@@H]2O[C@H](C)C[C@H](N(C)C)[C@H]2O)[C@](C)(O)C[C@@H](C)CN(CCCCc2cn(CCN3CCc4ccccc43)nn2)[C@H](C)[C@@H](O)[C@]1(C)O , if possible.
4

// repeat for O=C(N[C@H](CO)[C@H](O)c1ccc([N+](=O)[O-])cc1)C(Cl)Cl and report
4

---

- Assay Remarks: Binding affinity to ribosome nascent peptide exit tunnel in rabbit reticulocyte extract assessed as inhibition of eukaryotic translation in presence of amino acids incubated for 20 mins by luciferase reporter gene assay
- Parameters: species or system Oryctolagus cuniculus
Kindly supply the reported IC50 values for the records listed here.

Please report the recorded IC50 for CC[C@H]1OC(=O)[C@H](C)[C@@H](O[C@H]2C[C@@](C)(OC)[C@@H](O)[C@H](C)O2)[C@H](C)[C@@H](O[C@@H]2O[C@H](C)C[C@H](N(C)C)[C@H]2O)[C@](C)(O)C[C@@H](C)CN(Cc2ccc(-c3cn(CCN4CCc5ccccc54)nn3)cc2)[C@H](C)[C@@H](O)[C@]1(C)O .
> 250 µM

And what about the compound CC[C@H]1OC(=O)[C@H](C)[C@@H](O[C@H]2C[C@@](C)(OC)[C@@H](O)[C@H](C)O2)[C@H](C)[C@@H](O[C@@H]2O[C@H](C)C[C@H](N(C)C)[C@H]2O)[C@](C)(O)C[C@@H](C)CN(CCCCc2cn(CCn3ccc4cc(Cl)ccc43)nn2)[C@H](C)[C@@H](O)[C@]1(C)O ?
> 250 µM

CC[C@H]1OC(=O)[C@H](C)[C@@H](O[C@H]2C[C@@](C)(OC)[C@@H](O)[C@H](C)O2)[C@H](C)[C@@H](O[C@@H]2O[C@H](C)C[C@H](N(C)C)[C@H]2O)[C@](C)(O)C[C@@H](C)CN(CCCCc2cn(CCn3ccc4cc(OC)ccc43)nn2)[C@H](C)[C@@H](O)[C@]1(C)O , same question.
> 250 µM
